# Test system: H929 multiple myeloma tumour line
# test_description: In vitro cytotoxicity, Microculture Tetrazolium Assay
# Assay type: cell-based
# experimental_conditions: Homo sapiens, NCI-H929, 48 h, H929 cells, 48 hours exposure, MTT; read-out: IC50 (μM) MTT H929
Reported IC50 values for a set of compounds
The figure you give is taken to be in µM; do not add the unit.

Cc1c(-c2c(-c3ccco3)sc3ncnc(OC(Cc4ccccc4OC(C)C)C(=O)O)c23)ccc(OCCN2CCN(C)CC2)c1Cl (stereo not drawn): 0.406
Cc1c(-c2c(-c3ccc(F)o3)sc3ncnc(OC(Cc4ccccc4OCCN(C)C)C(=O)O)c23)ccc(OCCN2CCN(C)CC2)c1Cl (stereo not drawn): 0.848
COc1cc(-c2sc3ncnc(OC(Cc4ccccc4OC)C(=O)O)c3c2-c2ccc(OCCN3CCN(C)CC3)c(Cl)c2C)ccc1F (stereo not drawn): 0.202

If you can, please state the reported IC50 value of COc1ccccc1-c1nccc(COc2ccccc2CC(Oc2ncnc3sc(-c4ccc(F)cc4)c(-c4ccc(OCCN5CCN(C)CC5)c(Cl)c4Cl)c23)C(=O)O)n1 (stereo not drawn) .
0.005

If you can, please state the reported IC50 value of Cc1c(-c2c(-c3ccc(F)cc3)sc3ncnc(OC(Cc4ccccc4OCc4ccnc(Oc5ccccc5)n4)C(=O)O)c23)ccc(OCCN2CCN(C)CC2)c1Cl (stereo not drawn) .
0.022

If you can, please state the reported IC50 value of COCCN1CCC(COc2ccc(-c3c(-c4ccco4)sc4ncnc(OC(Cc5ccccc5OC)C(=O)O)c34)c(C)c2Cl)C1 (stereo not drawn) .
1
